Reported EC50 fold shift compared to asexual stage: Hepatocyte Toxicity by item:
Tested on: HepG2
Experiment: Hepatocyte toxicity
Format: cell-based, human
Settings: hepatocyte toxicity / 3D7 EC50

// worked examples, EC50 fold shift compared to asexual stage: Hepatocyte Toxicity included
O=C(NCC(CCCN1CCC(c2c[nH]c3ccccc23)CC1)c1ccccc1)Nc1ccc(Cl)c(Cl)c1 (centres unmarked) :: 39.46
Cc1c(C)n(Cc2ccc(F)cc2)c2ccc(C(=O)NCc3ccco3)cc12 :: > 6.5
COC(=O)c1ccc(C2C3=C(O)CC(c4ccc(F)cc4)CC3=Nc3ccccc3N2C(=O)c2ccccc2)cc1 (centres unmarked) :: > 116
CCC(C)NCC(O)(c1ccc(Cl)cc1)c1ccc(Cl)cc1 (centres unmarked) :: > 10
CCCN(CCC)CC(O)COc1ccccc1C(=O)Nc1ccccc1 (centres unmarked) :: > 9.4
O=C(NC(c1ccccc1)c1ccc2cccnc2c1O)c1ccccc1 (centres unmarked) :: 1.55
Cc1nc2ccc3ccc(CNc4ccc(C(=O)CC(CCC(=O)O)C(=O)O)cc4)cc3c2c(=O)[nH]1.Cl (centres unmarked) :: 504.78

Alright, here's another compound for you.
Ask: EC50 fold shift compared to asexual stage: Hepatocyte Toxicity lookup needed for `CCN(CC)S(=O)(=O)c1ccc(-c2csc(Nc3ccc(C)c(C)c3)n2)cc1` , thanks.
Result: > 5.3
